tested on: K. pneumoniae; assay: AK assay 384-well format, Prestwick library screening; assay type: cell-based, Klebsiella pneumoniae; conditions: Klebsiella pneumoniae, 3 h, planktonic K. pneumoniae; 50 μM final drug concentration; 384-well; […]; read-out: AK-based Prestwick Library Screening Results: K. pneumoniae (increase in extracellular AK activity)
Where a name gives a salt, the structure may show the parent alone.
Measurement Kind: fold induction at 50 µM
Please reply with the value in numeric form only.

CN(C)C(=O)C(CCN1CCC(O)(c2ccc(Cl)cc2)CC1)(c1ccccc1)c1ccccc1 [Loperamide hydrochloride] | 0.9
C[N+]1(C)CCC(=C(c2ccccc2)c2ccccc2)CC1 [Diphemanil methylsulfate] | 1.1
O=C(O)c1ccccc1Nc1cccc(C(F)(F)F)c1 [Flufenamic acid] | 1

Now consider the entry below.
Consider the compound shown here: CCC(=O)O[C@H]1CC[C@H]2[C@@H]3CCC4=CC(=O)CC[C@]4(C)[C@H]3CC[C@]12C [Testosterone propionate] What is its recorded fold induction at 50 µM?
0.4

---

test system: S. aureus strain USA300-0114; test: AK assay 384-well format, Prestwick library screening; type: cell-based, Staphylococcus aureus; conditions: Staphylococcus aureus, USA300, 3 h; planktonic S. aureus; 50 μM final drug concentration; 384-well; cutoff for positive-scoring molecules 3-fold increase; read-out: AK-based Prestwick Library Screening Results: S. aureus (increase in extracellular AK activity)
Where a name gives a salt, the structure may show the parent alone.
Measurement Kind: fold induction at 50 µM
Please reply with the value in numeric form only.

Worked set:
CC[N+](CC)(CC)CCOc1cccc(OCC[N+](CC)(CC)CC)c1OCC[N+](CC)(CC)CC [Gallamine triethiodide] | 1.1
CCN(CC)CCNC(=O)c1cc(S(C)(=O)=O)ccc1OC [Tiapride hydrochloride] | 1
CCCCOc1cc(C(=O)NCCN(CC)CC)c2ccccc2n1 | 1.3

Now consider the entry below.
Consider the molecule shown here: CCCCN1CCCCC1C(=O)Nc1c(C)cccc1C (stereo not shown) [Bupivacaine hydrochloride] What is its recorded fold induction at 50 µM?
1.1

---

system: A. baumannii strain 98-37-09; assay: AK assay 384-well format, Prestwick library screening; assay type: cell-based, Acinetobacter baumannii; conditions: Acinetobacter baumannii, 983709, 3 h; planktonic A. baumannii; 50 μM final drug concentration; cutoff for positive-scoring molecules 3-fold increase; read-out: AK-based Prestwick Library Screening Results, A. baumannii (increase in extracellular AK activity)
Where a name gives a salt, the structure may show the parent alone.
Measurement Kind: fold induction at 50 µM
Please reply with the value in numeric form only.

Worked set:
CCCc1cc(=O)[nH]c(=S)[nH]1 [Propylthiouracil] | 0.8
NC(=O)N/N=C/c1ccc([N+](=O)[O-])o1 [Nitrofural] | 1
CC1(C)S[C@@H]2[C@H](NC(=O)[C@H](N)c3ccc(O)cc3)C(=O)N2[C@H]1C(=O)O [Amoxicillin] | 1.7
CC(Cc1cccc(C(F)(F)F)c1)NCCOC(=O)c1ccccc1 (centres unmarked) [Benfluorex hydrochloride] | 1

Now consider the entry below.
Consider the compound shown here: CN1CCN(C2=Nc3cc(Cl)ccc3Nc3ccccc32)CC1 [Clozapine] What is its recorded fold induction at 50 µM?
0.9

---

tested on: A. baumannii strain 98-37-09; experiment: AK assay 384-well format, Prestwick library screening; type: cell-based, Acinetobacter baumannii; settings: Acinetobacter baumannii, 983709, 3 h; 50 μM final drug concentration; planktonic; cutoff for positive 3-fold increase; read-out: AK-based Prestwick Library Screening Results, A. baumannii (fold increase in extracellular AK activity)
Structures can show the parent of a compound that is named as a salt.
Measurement Kind: fold induction at 50 µM
Please reply with the value in numeric form only.

Worked set:
CC(=O)OCC(=O)[C@@]1(OC(C)=O)[C@@H](C)C[C@H]2[C@@H]3C[C@H](F)C4=CC(=O)C=C[C@]4(C)[C@@]3(F)[C@@H](O)C[C@@]21C [Diflorasone Diacetate] | 0.9
Cc1ccc(S(=O)(=O)NC(=O)NN2CC3CCCC3C2)cc1 (centres unmarked) [Gliclazide] | 1.3
Cc1cccc(CN2CCN(C(c3ccccc3)c3ccc(Cl)cc3)CC2)c1 (centres unmarked) [Meclozine dihydrochloride] | 1.9
CN1CCC(=C2c3ccccc3CC(=O)c3sccc32)CC1 [Ketotifen fumarate] | 1.1
Nc1cc(C(Cl)=C(Cl)Cl)c(S(N)(=O)=O)cc1S(N)(=O)=O | 1

Now consider the entry below.
Consider the molecule shown here: CC(=O)O[C@H]1C[C@@]2(C)[C@@H](C[C@@H](O)[C@H]3[C@@]4(C)CC[C@@H](O)[C@@H](C)[C@@H]4CC[C@@]32C)/C1=C(\CCC=C(C)C)C(=O)O [Fusidic acid sodium salt] What is its recorded fold induction at 50 µM?
1.3
